Source of measurements: the supplement of paper PMC9170038

# System: MS2 coat protein
# experimentalProtocol: apparent KD of MS2 coat protein; designed switch direction (-1 OFF switch, 1 ON switch): -1; higher = weaker reporter binding
# recordedConditions: input ligand: none
Examples of sequences with documented apparent KD of MS2 coat protein follow.
Value expressed in µM; do not type the unit.

constructSequence	result
AAUAAUGAUAAGGAUAUCACUAGCUGCGGCUAGUGAGAAGGUAUCACAUGAGGAUCACCCAUGUGUUCCAAUAA [Ex6/6-A3] (Eterna round: R97, puzzle: Exclusion 6)	0.0141
CUGGAGUCAGGAUAUAGGGCGGCUAUAACGCUCGCGCCGACCUAGAAGGGACUUGAGGAUCACCCAAGUAAAAU [Teerlaxe] (Eterna round: R97, puzzle: Exclusion 4)	0.0551
GGCUAGUCAGGAUAUACGAACAUGUCAAAAGACGUGAAGGGACAUGAGGAUCACCCAUGUAGAAGGGACUAGCC [salish99_ex2_r3_004] (Eterna round: R96, puzzle: Exclusion 2)	0.0275

Recall and state the measured apparent KD of MS2 coat protein for CUAUCCAGAGGAUAUACGAGAUCGAAAGAUCGGCGAUCCCUACAUGAGGAUCACCCAUGUAGAAGGCUGGAUAG [Mod 17 - Jieux - Exclusion 2] (Eterna round: R97, puzzle: Exclusion 2) .
0.0197

Recall and state the measured apparent KD of MS2 coat protein for UGAGCUACAGGAUAUAUAUGGCGACCGUGAGGUCGAAGGUUACAUGAGGAUCACCCAUGUAGAAGGGUAGUUCU [Mat - Exclusion 2 - JL Mod - D17] (Eterna round: R97, puzzle: Exclusion 2) .
0.0862

====

# System: MS2 coat protein
# experimentalProtocol: apparent KD of MS2 coat protein; designed switch direction (-1 OFF switch, 1 ON switch): -1; higher = weaker reporter binding
# recordedConditions: input ligand: FMN 200 uM
outcomeMeasure: apparent KD of MS2 coat protein

Consider the following illustrative entries.
constructSequence	target	result
GAGUUACAUGAGGAUCACCCAUGUGAGGAUAUGAGUCAGUCACGGUGACGUGGCUGACUCAGAAGGCACAAAGG [Mat - Exclusion 1 - JL Mod - D37] (Eterna round: R97, puzzle: Exclusion 1)	MS2 coat protein	186 nM
UUUACAAGCUAUAGAUCCCACAUGAGGAUCACCCAUGUUGCUGCCAACGGUAGCUUUUUAUGGUUUGCUCGUCUUAU [JL TOV1 3.35] (Eterna round: R97, puzzle: Sensor, turn-off variant 1)	MS2 coat protein	443 nM

Identify measured apparent KD of MS2 coat protein obtained with MS2 coat protein for GGUCAUCAAGUCAGGAUAUCGUCUAAUCAAUCAGGCGAGAAGGGACAUGAGGAUCACCCAUGUCGACUCAUCAG [Ex4 #6] (Eterna round: R97, puzzle: Brourd's mod of Exclusion 4) .
130 nM

====

# System: MS2 coat protein
# experimentalProtocol: apparent KD of MS2 coat protein; designed switch direction (-1 OFF switch, 1 ON switch): 1; higher = weaker reporter binding
# recordedConditions: input ligand: microRNA oligo, concentration not stated
outcomeMeasure: apparent KD of MS2 coat protein (nM)
Value expressed in nM; do not type the unit.

Consider the following illustrative entries.
constructSequence	displayUnit	apparent KD of MS2 coat protein
GCGGUCUGACAUGAGGAUCACCCAUGUGGAAUAAAUACGGGUUAGGAUAUCUUGAGGAUCACCCAAGAGAAGGGAUGGACCGCU (Eterna round: R96, puzzle: Same State NG 3)	nM	22.8
AGCUAUUAAUCAGGAUAUGGUCACAUGAGGAUCACCCAUGUGUAGAUGAUAAAAUGUGGUCUACACUAGAAGGGAUUGCUAACA [SameState NG2 #60] (Eterna round: R96, puzzle: Same State NG 2)	nM	216
AAGCCUAAACGGCGAAAACGACAUGAGGAUCACCCAUGUACACAGGAUAUCAGCCUGCUACAGGCUGAGAAGGGUGAACCUAAA [Maisveon] (Eterna round: R96, puzzle: Same State NG 3)	nM	63.8
AAAUAAAACACAGGAUAUGCAACCAAUACGGCGGCAGAAGGGUGAGACAUGAGGAUCACCCAUGUACACGUCCCACAGACGUGC [Onlaa] (Eterna round: R96, puzzle: Same State NG 1)	nM	243

Identify measured apparent KD of MS2 coat protein obtained with MS2 coat protein for AUUCGUUAGAUAGGAUAUCACCAUACAUGAGGAUCACCCAUGUUUACCACGCUGGUUUUUCAUACUGAGAAGGAUCUUGAUGAC [JR_SSNG2_Sub006] (Eterna round: R96, puzzle: Same State NG 2) .
16.7

Identify measured apparent KD of MS2 coat protein obtained with MS2 coat protein for GCUCGAUGAGAGUCCUACAUGAGGAUCACCCAUGUAUGUGGGCAGGAUAUCUACAUGCAGAAUGUAGAGAAGGGCCCGUCGAGC [SameState NG3 #57] (Eterna round: R96, puzzle: Same State NG 3) .
106

Identify measured apparent KD of MS2 coat protein obtained with MS2 coat protein for GGAAUAUGAUGUUACAUGAGGAUCACCCAUGUAGUGACAACUAAGGAUAUCUGAAAAGAAGGAGAGGAGAAGGUAGGAUCAUAA [AK SSNG3-V2-14.1] (Eterna round: R96, puzzle: Same State NG 3) .
23.1
